- TARGET_OR_SYSTEM: rat GPR14 (U-II receptor) (Rattus norvegicus)
- Construct: expressed in transfected cells
- Sequence (P49684 whole entry): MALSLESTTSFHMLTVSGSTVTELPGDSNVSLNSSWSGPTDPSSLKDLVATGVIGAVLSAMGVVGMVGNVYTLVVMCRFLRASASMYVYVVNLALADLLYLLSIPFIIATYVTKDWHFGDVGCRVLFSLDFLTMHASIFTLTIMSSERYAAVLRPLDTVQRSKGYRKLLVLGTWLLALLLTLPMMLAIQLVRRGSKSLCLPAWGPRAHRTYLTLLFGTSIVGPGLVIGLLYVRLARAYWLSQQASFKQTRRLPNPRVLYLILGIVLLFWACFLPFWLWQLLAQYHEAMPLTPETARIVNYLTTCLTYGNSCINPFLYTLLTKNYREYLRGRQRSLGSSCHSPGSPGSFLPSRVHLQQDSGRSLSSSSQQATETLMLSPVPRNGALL
- PROTOCOL_DESCRIPTION: Rat UII Calcium Mobilization FLIPR Assay
- Type: cell-based
- TEST_CONDITIONS: average value for the compound tested; read-out: Rat UII FLIPR Average IC50
pIC50: −log10 of the molar value.
MEASURED_QUANTITY: pIC50

[[record]]
compound = "COc1ccc(C(CCCNS(=O)(=O)c2cn(C)c(C)n2)N2C(=O)c3cccc(N4CCN([C@H](C)c5ccccc5)CC4)c3C2=O)cc1OC (stereo partly shown)"
target_or_system = "rat GPR14 (U-II receptor) (Rattus norvegicus)"
reading = 7.77

[[record]]
compound = "COc1ccc([C@@H](CCCNC(=O)C(C#N)C(C)=O)N2C(=O)c3cccc(N4CCN([C@H](C)c5ccccc5)CC4)c3C2=O)cc1OC (stereo partly shown)"
target_or_system = "rat GPR14 (U-II receptor) (Rattus norvegicus)"
reading = 8.03

[[record]]
compound = "COc1ccc([C@@H](CCNC(=O)c2cnoc2C)N2C(=O)c3cccc(N4CCN([C@H](C)c5ccccc5)CC4)c3C2=O)cc1OC"
target_or_system = "rat GPR14 (U-II receptor) (Rattus norvegicus)"
reading = 7.85

[[record]]
compound = "COc1ccc([C@@H](CCCNS(=O)(=O)c2cccs2)N2C(=O)c3cccc(N4CCNCC4)c3C2=O)cc1OC"
target_or_system = "rat GPR14 (U-II receptor) (Rattus norvegicus)"
reading = 7.40

